# target: HLA-B*44:02 (Homo sapiens, UniProt P01889, A223V/A65T/A93T/A95T/D201E/D98Y/E176V/E187L/E204Q/E69K/G107R/H137Y/K202T/L105A/L119I/N104T/N87E/Q56L/Q94N/R106L/R155S/R180D/S101N/S121R/S35A/S48T/T118I/V36M/W191S/Y140D/Y91S)
# assay-notes: MHC binding assay (UV-ligand exchange, beta2m ELISA)
# particulars: peptide exchange yield
outcome-measure: Peptide exchange

Here's what some known entries look like.
Form: substance = 201 (AETILTFHAF; listed as Homo sapiens) [compound 201] ; Peptide exchange = “+++” (>50 = +++)

Form: substance = 59 (SENVTMKVV; listed as Homo sapiens) [compound 59] ; Peptide exchange = “+++” (>50 = +++)

Form: substance = 404 (NEAIMHQY; listed as Homo sapiens) [compound 404] ; Peptide exchange = “++” (>20% = ++)

Form: substance = 431 (AEQDPDELNKA; listed as Homo sapiens) [compound 431] ; Peptide exchange = “++” (>20% = ++)

Form: substance = 435 (REEFVSIDHL; listed as Homo sapiens) [compound 435] ; Peptide exchange = “++” (>20% = ++)

Continuing:
Form: substance = 198 (QEAARAAL; listed as Homo sapiens) [compound 198] ; Peptide exchange = “++” (>20% = ++)

Form: substance = 176 (AEIEPKADGSW; listed as Homo sapiens) [compound 176] ; Peptide exchange = “+++” (>50 = +++)

---

# target: HLA-A*03:01 (Homo sapiens)
# assay-notes: MHC binding assay (UV-ligand exchange, beta2m ELISA)
# particulars: peptide exchange yield
outcome-measure: Peptide exchange

Here's what some known entries look like.
Form: substance = 280 (SVSGVKTTF; listed as Homo sapiens) [compound 280] ; Peptide exchange = ++ (>20% = ++)

Form: substance = 95 (QSMYYPLQLK; listed as Homo sapiens) [compound 95] ; Peptide exchange = ++ (>20% = ++)

Form: substance = 256 (RTEEVLLTFK; listed as Homo sapiens) [compound 256] ; Peptide exchange = ++ (>20% = ++)

Form: substance = 267 (VTDLISPRK; listed as Homo sapiens) [compound 267] ; Peptide exchange = ++ (>20% = ++)

Form: substance = 88 (VVHAVFALK; listed as Homo sapiens) [compound 88] ; Peptide exchange = +++ (>50 = +++)

Continuing:
Form: substance = 266 (ISYSGQFLVK; listed as Homo sapiens) [compound 266] ; Peptide exchange = +++ (>50 = +++)

Form: substance = 24 (SMYYPLQLK; listed as Homo sapiens) [compound 24] ; Peptide exchange = +++ (>50 = +++)

Form: substance = 104 (VLADSVTTK; listed as Homo sapiens) [compound 104] ; Peptide exchange = ++ (>20% = ++)

---

# target: HLA-A*03:01 (Homo sapiens)
# assay-notes: MHC binding assay (UV-ligand exchange, beta2m ELISA)
# particulars: peptide exchange yield
outcome-measure: Peptide exchange

Here's what some known entries look like.
Form: substance = 26 (RISEYLLEK; listed as Homo sapiens) [compound 26] ; Peptide exchange = ++ (>20% = ++)

Form: substance = 91 (RSLRYYYEK; listed as Homo sapiens) [compound 91] ; Peptide exchange = ++ (>20% = ++)

Form: substance = 275 (STTFPTLTK; listed as Homo sapiens) [compound 275] ; Peptide exchange = ++ (>20% = ++)

Form: substance = 258 (GAYAHTVNR; listed as Homo sapiens) [compound 258] ; Peptide exchange = +++ (>50 = +++)

Form: substance = 272 (RQPERTILRPR; listed as Homo sapiens) [compound 272] ; Peptide exchange = ++ (>20% = ++)

Form: substance = 90 (KVAGERYVYK; listed as Homo sapiens) [compound 90] ; Peptide exchange = +++ (>50 = +++)

Continuing:
Form: substance = 263 (SSSSATISK; listed as Homo sapiens) [compound 263] ; Peptide exchange = ++ (>20% = ++)

Form: substance = 107 (RLQEWKALK; listed as Homo sapiens) [compound 107] ; Peptide exchange = +++ (>50 = +++)

Form: substance = 89 (RVAELLLLH; listed as Homo sapiens) [compound 89] ; Peptide exchange = ++ (>20% = ++)

---

# target: HLA-B*07:02 (Homo sapiens, UniProt P01889)
# assay-notes: MHC binding assay (UV-ligand exchange, beta2m ELISA)
# particulars: peptide exchange yield
outcome-measure: Peptide exchange

Value (Peptide exchange, HLA-B*07:02 (Homo sapiens, UniProt P01889)) for record 352 (SPAETSTNM; listed as Homo sapiens) [compound 352] = “+++” (>50 = +++)

Value (Peptide exchange, HLA-B*07:02 (Homo sapiens, UniProt P01889)) for record 300 (IPMAAVKQAL; listed as Homo sapiens) [compound 300] = “+++” (>50 = +++)

Value (Peptide exchange, HLA-B*07:02 (Homo sapiens, UniProt P01889)) for record 381 (LPEQTPLAF; listed as Homo sapiens) [compound 381] = “++” (>20% = ++)

Value (Peptide exchange, HLA-B*07:02 (Homo sapiens, UniProt P01889)) for record 340 (LPEISTRTM; listed as Homo sapiens) [compound 340] = “++” (>20% = ++)

Value (Peptide exchange, HLA-B*07:02 (Homo sapiens, UniProt P01889)) for record 137 (SPGATSRGTL; listed as Homo sapiens) [compound 137] = “+++” (>50 = +++)

For the next question, use this substance.
Value (Peptide exchange, HLA-B*07:02 (Homo sapiens, UniProt P01889)) for record 149 (GPREALSRL; listed as Homo sapiens) [compound 149] = “+++” (>50 = +++)

---

# target: HLA-A*03:01 (Homo sapiens, UniProt P04439)
# assay-notes: MHC binding assay (UV-ligand exchange, beta2m ELISA)
# particulars: peptide exchange yield
outcome-measure: Peptide exchange

Here's what some known entries look like.
Form: substance = 23 (GMMKGGIRK; listed as Homo sapiens) [compound 23] ; Peptide exchange = +++ (>50 = +++)

Form: substance = 269 (RLKGDAWVYK; listed as Homo sapiens) [compound 269] ; Peptide exchange = +++ (>50 = +++)

Form: substance = 277 (TTALKTTSR; listed as Homo sapiens) [compound 277] ; Peptide exchange = + (>10% = +)

Form: substance = 110 (SAAPPSYFR; listed as Homo sapiens) [compound 110] ; Peptide exchange = ++ (>20% = ++)

Form: substance = 105 (RLFSWLVNR; listed as Homo sapiens) [compound 105] ; Peptide exchange = +++ (>50 = +++)

Continuing:
Form: substance = 101 (RVFTSSIKTK; listed as Homo sapiens) [compound 101] ; Peptide exchange = ++ (>20% = ++)

Form: substance = 276 (VSKTTGMEF; listed as Homo sapiens) [compound 276] ; Peptide exchange = + (>10% = +)

Form: substance = 83 (GTYAHTVNR; listed as Homo sapiens) [compound 83] ; Peptide exchange = +++ (>50 = +++)

Form: substance = 285 (GTVNPTVGK; listed as Homo sapiens) [compound 285] ; Peptide exchange = ++ (>20% = ++)

---

# target: HLA-B*07:02 (Homo sapiens, UniProt P01889)
# assay-notes: MHC binding assay (UV-ligand exchange, beta2m ELISA)
# particulars: peptide exchange yield
outcome-measure: Peptide exchange

Form: substance = 136 (SPFSAEEANSL; listed as Homo sapiens) [compound 136] ; Peptide exchange = “+++” (>50 = +++)

Form: substance = 364 (TPLATTQRF; listed as Homo sapiens) [compound 364] ; Peptide exchange = “++” (>20% = ++)

Form: substance = 358 (SPSPVTSTL; listed as Homo sapiens) [compound 358] ; Peptide exchange = “+++” (>50 = +++)

Form: substance = 392 (KPIESTLVA; listed as Homo sapiens) [compound 392] ; Peptide exchange = “+++” (>50 = +++)

Form: substance = 122 (YPGFPQSQY; listed as Homo sapiens) [compound 122] ; Peptide exchange = “++” (>20% = ++)

Form: substance = 382 (SPMHDRWTF; listed as Homo sapiens) [compound 382] ; Peptide exchange = “+++” (>50 = +++)

Form: substance = 389 (SPGAQRTFFQL; listed as Homo sapiens) [compound 389] ; Peptide exchange = “+++” (>50 = +++)

Form: substance = 328 (EPVTSSLPNF; listed as Homo sapiens) [compound 328] ; Peptide exchange = “++” (>20% = ++)

For the next question, use this substance.
Form: substance = 40 (KPGTSYRVTL; listed as Homo sapiens) [compound 40] ; Peptide exchange = “+++” (>50 = +++)
